assay overview: in vivo
condition info: Kbl:JW, rabbit, in vivo, topical or ocular
measurement label: Cmax
Write your answer as a measured quantity: the number, then the unit.

INSERT INTO assay_data (compound, measured_value) VALUES
  ('O=C(O)Cc1ccccc1Nc1c(Cl)cccc1Cl [Diclofenac, diclofenac]', '300 ng/mL'),
  ('Nc1c(CC(=O)O)cccc1C(=O)c1ccc(Br)cc1 [Bromfenac]', '57.8 ng/mL');

Next item in the queue.
Given Nc1c(CC(=O)O)cccc1C(=O)c1ccccc1 [Amfenac, amfenac] , state its recorded Cmax.
25.9 ng/mL

---

assay overview: in vivo
condition info: Kbl:JW, rabbit, in vivo, topical or ocular
measurement label: half-life (h)
Number only, in h; omit the unit.

Report half-life for "O=C(O)Cc1ccccc1Nc1c(Cl)cccc1Cl" please.
1.94
